Below, each entry is listed alongside its reported pKd.
molecular target: mouse CTLA4 (SPR analyte, construct not stated) (mouse, UniProt P09793 36-162, limits assumed); assay: SPR (Biacore T200), IgG captured by anti-human Fc
// pKd: -log10(molar conc.)

binder	pKd
TY21687 (antibody, V domains shown, human IgG1 (hIgG1) from Fab hit B15700) VH: EVQLVESGGGLVQPGGSLRLSCAASGFTFSGYAIHWVRQAPGKGLEWIGIISPSGGGTKYAQKFQGRVTISRDNSKNTLYLQLNSLRAEDTAVYYCARHPFAYWGQGTLVTVSS VL: DIQLTQSPSSLSASVGDRVTITCRASQSVDFYGISFLDWYQQKPGKAPKLLIYDASNRATGIPSRFSGSGSGTDFTLTISSLQPEDFATYYCQQYVSSPPEYTFGQGTKVEIK	8.56
TY21585 (antibody, V domains shown, human IgG1 (hIgG1) from Fab hit B15709) VH: EVQLVESGGGLVQPGGSLRLSCAASGFTFSDYAIHWVRQAPGKGLEWIGIISPSSGSTNYAQKFQGRVTISRDNSKNTLYLQLNSLRAEDTAVYYCARDIHSGSSGYYYGFDVWGQGTLVTVSS VL: DIQLTQSPSSLSASVGDRVTITCRASESVDFFGISFLAWYQQKPGKAPKLLIYDASNRATGIPSRFSGSGSGTDFTLTISSLQPEDFATYYCQHYTSSPPVYTFGQGTKVEIK	8.77
TY21691 (antibody, V domains shown, human IgG1 (hIgG1) from Fab hit B15736) VH: EVQLVESGGGLVQPGGSLRLSCAASGFTFSDYAIHWVRQAPGKGLEWIGIISPSGGSTKYAQKFQGRVTISRDNSKNTLYLQLNSLRAEDTAVYYCARLGYGYFDVWGQGTLVTVSS VL: DIQLTQSPSSLSASVGDRVTITCRASQSVDFYGISFLHWYQQKPGKAPKLLIYDASSLESGVPSRFSGSGSGTDFTLTISSLQPEDFATYYCVQALQLPLTFGQGTKVEIK	8.84

Continue with the binder presented below.
In: Recorded pKd for TY21692 (antibody, V domains shown, human IgG1 (hIgG1) from Fab hit B16083) VH: EVQLVESGGGLVQPGGSLRLSCAASGYSITSGHYWSWIRQAPGKGLEWIGDISHSGSTYYSQSLKSRVTISRDNSKNTLYLQLNSLRAEDTAVYYCARGSRTGYFDYWGQGTLVTVSS VL: DIQLTQSPSSLSASVGDRVTITCRASQSISSYLNWYQQKPGKAPKLLIYDASNLETGVPSRFSGSGSGTDFTLTISSLQPEDFATYYCQHHYGTPLTFGQGTKVEIKR , please?
Out: 8.95
